- Measurement Target: human 5-HT2C receptor (Homo sapiens, UniProt P28335, I156V/I160V/N158S)
- Sequence (P28335 33-458 I156V/N158S/I160V limits assumed): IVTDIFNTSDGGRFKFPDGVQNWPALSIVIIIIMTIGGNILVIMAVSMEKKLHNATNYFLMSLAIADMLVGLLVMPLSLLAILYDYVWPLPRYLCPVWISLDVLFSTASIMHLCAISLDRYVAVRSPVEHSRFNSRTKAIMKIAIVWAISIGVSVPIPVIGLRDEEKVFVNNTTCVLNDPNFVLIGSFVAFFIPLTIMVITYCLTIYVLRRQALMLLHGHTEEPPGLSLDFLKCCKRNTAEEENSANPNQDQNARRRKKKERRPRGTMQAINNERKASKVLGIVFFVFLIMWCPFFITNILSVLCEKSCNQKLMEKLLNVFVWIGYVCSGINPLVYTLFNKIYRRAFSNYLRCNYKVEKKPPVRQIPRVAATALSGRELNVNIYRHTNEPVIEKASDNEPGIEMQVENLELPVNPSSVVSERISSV
- Assay Protocol: cell-based
Parameter: EC50 (nM)
The reply should be a number in nM, with the unit left off.

Answered cases to consult:
> print(dat)
                                   molecule  display.unit  reported.value
1  COc1ccccc1OCC1CN(c2c3c(nc4ccnn24)CCNCC3)C1 [Example 15.21]            nM              29
2  O=C(NCC1CCOC1)C1CN(c2c3c(nc4ccnn24)CCNCC3)C1 (stereo not drawn) [Example 37.61]            nM              64
3  c1ccc(CC2CN(c3c4c(nc5ccnn35)CCNCC4)C2)nc1 [Example 18]            nM             451

For the molecule shown here, O=C(C1CN(c2c3c(nc4ccnn24)CCNCC3)C1)N1CCCC(c2ccccc2)C1 (stereo not drawn) [Example 31.108] , give the reported EC50.
113

---

Reported pEC50 values follow for various molecules
- Measurement Target: human 5-HT2C receptor (Homo sapiens, UniProt P28335, I156V/I160V/N158S)
- Assay Protocol: cell-based
Note: pEC50 values are expressed as the negative base-10 logarithm of concentration in M.

> print(dat)
                                   molecule                        measurement.target  parameter  reported.value
1  CC(=O)NC1CCN(C(=O)C2CN(c3c4c(nc5ccnn35)CCNCC4)C2)C1 (stereo not shown) [Example 37.27]  human 5-HT2C receptor (Homo sapiens, UniProt P28335, I156V/I160V/N158S)      pEC50            7.85
2  CC1CN(C(=O)C2CN(c3c4c(nc5ccnn35)CCN(C)CC4)C2)CC(C)N1C (stereo not shown) [Example 36.7]  human 5-HT2C receptor (Homo sapiens, UniProt P28335, I156V/I160V/N158S)      pEC50            6.97
3  CN(Cc1cccc(F)c1)C(=O)C1CN(c2c3c(nc4ccnn24)CCNCC3)C1 [Example 31.125]  human 5-HT2C receptor (Homo sapiens, UniProt P28335, I156V/I160V/N158S)      pEC50            7.42

Please examine the following record next.
For the molecule shown here, O=C(NC1(c2ccccc2)CC1)C1CN(c2c3c(nc4ccnn24)CCNCC3)C1 [Example 31.92] , give the reported pEC50.
6.04

---

- Measurement Target: human 5-HT2C receptor (Homo sapiens, UniProt P28335, I156V/I160V/N158S)
- Assay Protocol: cell-based
Parameter: log10(EC50) (log10 of the value in nM)
In our notation, the value equals log10 of EC50 in nM.

> print(dat)
                           molecular.string    parameter  reported.value
1  c1ccc2c(c1)ncn2C1CCN(c2c3c(nc4ccnn24)CCNCC3)CC1  log10(EC50)            3.98
2  CC(C)c1ccc(CN(C)C(=O)C2CN(c3c4c(nc5ccnn35)CCNCC4)C2)cc1  log10(EC50)            2.03
3  Cc1cc(OC2CN(c3c4c(nc5ccnn35)CCNCC4)C2)cc(C)n1  log10(EC50)            2.02
4  O=C(C1CN(c2c3c(nc4ccnn24)CCNCC3)C1)N1CCC(C(F)(F)F)CC1  log10(EC50)            0.90
5  FC(F)(F)c1ccc2c(c1)nc(C1CN(c3c4c(nc5ccnn35)CCNCC4)C1)n2Cc1ccccc1  log10(EC50)            3.32

For the molecule shown here, `COc1cccc(OC2CN(c3c4c(nc5ccnn35)CCNCC4)C2)c1` , give the reported log10(EC50).
1.82

For the molecule shown here, `CC1(C)CCN(C(=O)C2CN(c3c4c(nc5c(Br)cnn35)CCNCC4)C2)C1` , give the reported log10(EC50).
1.66

For the molecule shown here, `O=C(C1CN(c2c3c(nc4ccnn24)CCNCC3)C1)N1CCC2(CC1)OCc1ccccc12` , give the reported log10(EC50).
1.93
